Test Target: T1, GIP Receptor (Homo sapiens, UniProt P48546)
T1 construct: host or cells: HEK293T
T1 sequence (P48546 22-466): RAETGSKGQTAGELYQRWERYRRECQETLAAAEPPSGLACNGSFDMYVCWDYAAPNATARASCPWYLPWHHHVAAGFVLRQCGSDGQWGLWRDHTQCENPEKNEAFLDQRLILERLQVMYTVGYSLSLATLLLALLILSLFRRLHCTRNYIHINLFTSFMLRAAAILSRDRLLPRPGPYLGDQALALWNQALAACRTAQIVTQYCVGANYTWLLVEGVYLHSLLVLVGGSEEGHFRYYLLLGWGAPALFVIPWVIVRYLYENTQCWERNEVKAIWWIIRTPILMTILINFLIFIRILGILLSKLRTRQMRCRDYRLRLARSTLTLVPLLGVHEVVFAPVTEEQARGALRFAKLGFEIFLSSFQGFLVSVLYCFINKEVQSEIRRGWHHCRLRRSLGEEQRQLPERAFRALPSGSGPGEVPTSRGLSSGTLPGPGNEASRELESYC
Run Description: GIP receptor-mediated bioluminescence in HEK293T cells with chimeric promiscuous G protein (FIG. 5, Table II)
Assay type: cell-based
Condition Info: signal induced by maximal GIP (1 μM) divided by signal induced by buffer alone
Below, each entry is listed alongside its reported Signal: background with GIP.
Quantity Measured: Signal: background with GIP

[
  {
    "Molecule": "Mt-clytin K168V: Mitochondrial K168V modified Clytin, SEQ ID NO:26 (protein) MSVLTPLLLRGLTGSARRLPVPRAKIHSLPPEGKLRPNFDNPKWVNRHKFMFNFLDINGDGKITLDEIVSKASDDICAKLGATPEQTKRHQDAVEAFFKKIGMDYGKEVEFPAFVDGWKELANYDLKLWSQNKKSLIRDWGEAVFDIFDKDGSGSISLDEWKAYGRISGICSSDEDAEKTFKHCDLDNSGVLDVDEMTRQHLGFWYTLDPNADGLYGNFVP",
    "Quantity Measured": "Signal: background with GIP",
    "Result": 158.0
  },
  {
    "Molecule": "Cyto-clytin K168D: K168D modified Clytin amino acid sequence, SEQ ID NO:9; cytosolic (protein) MADTASKYAVKLRPNFDNPKWVNRHKFMFNFLDINGDGKITLDEIVSKASDDICAKLGATPEQTKRHQDAVEAFFKKIGMDYGKEVEFPAFVDGWKELANYDLKLWSQNKKSLIRDWGEAVFDIFDKDGSGSISLDEWKAYGRISGICSSDEDAEKTFKHCDLDNSGDLDVDEMTRQHLGFWYTLDPNADGLYGNFVP",
    "Quantity Measured": "Signal: background with GIP",
    "Result": 74.3
  }
]

Cited source for all entries: patent US20110081661A1
